This listing pairs compounds with measured Relative effect potency (REP) HepG2.
Target: human AhR (hAhR) (Homo sapiens)
Sequence (P35869 11-848): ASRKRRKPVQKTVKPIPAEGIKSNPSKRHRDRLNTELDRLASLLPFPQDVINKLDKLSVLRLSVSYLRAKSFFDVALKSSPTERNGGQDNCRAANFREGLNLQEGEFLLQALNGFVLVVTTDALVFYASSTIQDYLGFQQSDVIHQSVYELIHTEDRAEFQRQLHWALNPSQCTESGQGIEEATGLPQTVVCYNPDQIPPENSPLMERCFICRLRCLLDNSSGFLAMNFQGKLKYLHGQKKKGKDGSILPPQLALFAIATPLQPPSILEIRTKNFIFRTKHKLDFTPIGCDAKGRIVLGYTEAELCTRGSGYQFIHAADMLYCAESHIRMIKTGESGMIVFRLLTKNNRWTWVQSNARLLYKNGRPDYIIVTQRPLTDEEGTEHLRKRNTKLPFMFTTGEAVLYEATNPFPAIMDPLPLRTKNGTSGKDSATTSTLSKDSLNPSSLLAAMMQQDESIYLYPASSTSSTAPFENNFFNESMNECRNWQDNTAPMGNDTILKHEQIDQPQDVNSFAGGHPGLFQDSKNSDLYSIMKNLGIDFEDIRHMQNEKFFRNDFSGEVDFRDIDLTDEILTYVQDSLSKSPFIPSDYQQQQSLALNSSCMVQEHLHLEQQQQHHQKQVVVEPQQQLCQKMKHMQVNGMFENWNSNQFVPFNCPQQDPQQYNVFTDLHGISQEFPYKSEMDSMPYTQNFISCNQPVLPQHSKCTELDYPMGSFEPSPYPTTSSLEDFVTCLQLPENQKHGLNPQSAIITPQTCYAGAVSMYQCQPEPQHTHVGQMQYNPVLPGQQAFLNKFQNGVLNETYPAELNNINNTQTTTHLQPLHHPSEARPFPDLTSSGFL
Assay: AhR-dependent pXRE-SV40-Luc luciferase reporter in HepG2 cells
Type: cell-based
Settings: EC50-based, relative to TCDD, human system
Readout: Relative effect potency (REP) HepG2

[[record]]
compound = "Clc1ccc(-c2ccc(Cl)c(Cl)c2)cc1Cl [PCB 77]"
readout = "Relative effect potency (REP) HepG2"
value_observed = "≤ 0.00009"

[[record]]
compound = "Clc1ccc(-c2cc(Cl)c(Cl)c(Cl)c2Cl)cc1 [PCB 114]"
readout = "Relative effect potency (REP) HepG2"
value_observed = "≤ 0.00007"

[[record]]
compound = "Clc1cc(-c2cc(Cl)c(Cl)c(Cl)c2)cc(Cl)c1Cl [PCB 169]"
readout = "Relative effect potency (REP) HepG2"
value_observed = "≤ 0.00005"

